- assay.text: Volume of distribution at steady state in dog at 2.5 mg/kg, iv
- Assay type: ADME, organism-based, Canis lupus familiaris
- Parameters: dose 2.5 mg/kg, route intravenous
- stated.conditions: in vivo, read-out: Vdss
value.kind: Vd (L/kg)
Answer format: numeric, L/kg implied, no suffix.

Entry CC(C)(C)CC[C@@]1(C)C(=O)C(C2=NS(=O)(=O)c3cc(NS(C)(=O)=O)ccc3N2)=C([O-])c2ccccc21.[Na+] — recorded Vd = 0.38
